# Target Or System: DRB1*0405 (Homo sapiens, UniProt P01903+P01911, A100R/A169T/D86S/F76Y/I96L/K127E/L162R/M171V/N62H/P40V/Q125Y/R42H/S133A/S149N/S66Y/V115G/V209L/W38E)
# Assay Remarks: biochemical
# Type: binding
pIC50: −log10 of the molar value.
# pIC50 >= 6 gives 1, anything below gives -1

Lookup: Can CC[C@H](C)[C@H](N)C(=O)N[C@@H](CCC(=O)O)C(=O)N[C@@H](Cc1ccccc1)C(=O)N[C@H](C(=O)N[C@H](C(=O)N[C@@H](Cc1ccccc1)C(=O)N[C@@H](CC(C)C)C(=O)NCC(=O)N[C@@H](C)C(=O)N[C@@H](CC(C)C)C(=O)N[C@@H](CCCCN)C(=O)N[C@@H](CO)C(=O)N[C@@H](Cc1ccccc1)C(=O)N[C@@H](CC(C)C)C(=O)N[C@@H](CCCCN)C(=O)O)[C@@H](C)O)[C@@H](C)CC [Peptide 89.0033] be said to have pIC50 at or above 6?
Found: -1

Lookup: Can CC[C@H](C)[C@H](NC(=O)[C@H](Cc1c[nH]c2ccccc12)NC(=O)[C@H](CCC(=O)O)NC(=O)[C@@H]1CCCN1)C(=O)N[C@@H](CCC(N)=O)C(=O)N[C@@H](CCCNC(=N)N)C(=O)N[C@@H](CCC(N)=O)C(=O)N[C@H](C(=O)N[C@H](C(=O)N[C@@H](CC(C)C)C(=O)N[C@@H](CCC(N)=O)C(=O)N[C@@H](Cc1c[nH]cn1)C(=O)N[C@@H](CO)C(=O)N[C@@H](Cc1ccccc1)C(=O)N[C@@H](CC(N)=O)C(=O)O)C(C)C)[C@@H](C)O [Peptide 89.0011] be said to have pIC50 at or above 6?
Found: 1

Lookup: Can CSCC[C@H](NC(=O)[C@H](Cc1ccc(O)cc1)NC(=O)[C@H](Cc1ccc(O)cc1)NC(=O)[C@@H](NC(=O)[C@H](CO)NC(=O)[C@H](CC(=O)O)NC(=O)[C@H](Cc1c[nH]c2ccccc12)NC(=O)[C@H](C)NC(=O)[C@@H](N)C(C)C)C(C)C)C(=O)N[C@H](C(=O)N[C@@H](CC(=O)O)C(=O)N[C@@H](C)C(=O)NCC(=O)N[C@H](C(=O)N[C@@H](Cc1c[nH]c2ccccc12)C(=O)O)[C@@H](C)O)[C@@H](C)O [Peptide 1601.10] be said to have pIC50 at or above 6?
Found: -1

Lookup: Can CC[C@H](C)[C@H](NC(=O)[C@H](C)NC(=O)[C@H](CCCCN)NC(=O)[C@@H](N)Cc1c[nH]cn1)C(=O)N[C@@H](CCC(=O)O)C(=O)N[C@@H](CC(C)C)C(=O)N[C@@H](CCC(N)=O)C(=O)N[C@@H](CCSC)C(=O)N[C@@H](C)C(=O)N[C@@H](CC(C)C)C(=O)N[C@@H](CCC(N)=O)C(=O)NCC(=O)N[C@@H](CC(C)C)C(=O)N[C@@H](C)C(=O)N[C@@H](CCC(N)=O)C(=O)O [Peptide 89.0160] be said to have pIC50 at or above 6?
Found: -1

Lookup: Can CC[C@H](C)[C@H](NC(=O)[C@H](Cc1c[nH]c2ccccc12)NC(=O)[C@H](CCC(=O)O)NC(=O)[C@@H]1CCCN1)C(=O)N[C@@H](CCC(=O)O)C(=O)N[C@@H](CCCNC(=N)N)C(=O)N[C@@H](CCC(N)=O)C(=O)N[C@H](C(=O)N[C@H](C(=O)N[C@@H](CC(C)C)C(=O)N[C@@H](CCC(N)=O)C(=O)N[C@@H](Cc1c[nH]cn1)C(=O)N[C@@H](CO)C(=O)N[C@@H](Cc1ccccc1)C(=O)N[C@@H](CC(N)=O)C(=O)O)C(C)C)[C@@H](C)O [Peptide 89.0049] be said to have pIC50 at or above 6?
Found: 1

Lookup: Can CC(C)[C@H](NC(=O)[C@H](CO)NC(=O)[C@@H](NC(=O)[C@@H](N)[C@@H](C)O)C(C)C)C(=O)NCC(=O)N[C@H](C(=O)N[C@@H](C)C(=O)N[C@@H](CCCCN)C(=O)N[C@H](C(=O)N[C@@H](Cc1ccc(O)cc1)C(=O)NCC(=O)N[C@@H](CCC(N)=O)C(=O)N[C@H](C(=O)N[C@@H](CO)C(=O)N[C@@H](C)C(=O)O)[C@@H](C)O)[C@@H](C)O)[C@@H](C)O [Peptide 89.0163] be said to have pIC50 at or above 6?
Found: -1
